The entries below come with measured pIC50 values attached.
assayed_target: Bifunctional 3'-5' exonuclease/ATP-dependent helicase WRN (Homo sapiens)
Sequence (Q14191 whole entry): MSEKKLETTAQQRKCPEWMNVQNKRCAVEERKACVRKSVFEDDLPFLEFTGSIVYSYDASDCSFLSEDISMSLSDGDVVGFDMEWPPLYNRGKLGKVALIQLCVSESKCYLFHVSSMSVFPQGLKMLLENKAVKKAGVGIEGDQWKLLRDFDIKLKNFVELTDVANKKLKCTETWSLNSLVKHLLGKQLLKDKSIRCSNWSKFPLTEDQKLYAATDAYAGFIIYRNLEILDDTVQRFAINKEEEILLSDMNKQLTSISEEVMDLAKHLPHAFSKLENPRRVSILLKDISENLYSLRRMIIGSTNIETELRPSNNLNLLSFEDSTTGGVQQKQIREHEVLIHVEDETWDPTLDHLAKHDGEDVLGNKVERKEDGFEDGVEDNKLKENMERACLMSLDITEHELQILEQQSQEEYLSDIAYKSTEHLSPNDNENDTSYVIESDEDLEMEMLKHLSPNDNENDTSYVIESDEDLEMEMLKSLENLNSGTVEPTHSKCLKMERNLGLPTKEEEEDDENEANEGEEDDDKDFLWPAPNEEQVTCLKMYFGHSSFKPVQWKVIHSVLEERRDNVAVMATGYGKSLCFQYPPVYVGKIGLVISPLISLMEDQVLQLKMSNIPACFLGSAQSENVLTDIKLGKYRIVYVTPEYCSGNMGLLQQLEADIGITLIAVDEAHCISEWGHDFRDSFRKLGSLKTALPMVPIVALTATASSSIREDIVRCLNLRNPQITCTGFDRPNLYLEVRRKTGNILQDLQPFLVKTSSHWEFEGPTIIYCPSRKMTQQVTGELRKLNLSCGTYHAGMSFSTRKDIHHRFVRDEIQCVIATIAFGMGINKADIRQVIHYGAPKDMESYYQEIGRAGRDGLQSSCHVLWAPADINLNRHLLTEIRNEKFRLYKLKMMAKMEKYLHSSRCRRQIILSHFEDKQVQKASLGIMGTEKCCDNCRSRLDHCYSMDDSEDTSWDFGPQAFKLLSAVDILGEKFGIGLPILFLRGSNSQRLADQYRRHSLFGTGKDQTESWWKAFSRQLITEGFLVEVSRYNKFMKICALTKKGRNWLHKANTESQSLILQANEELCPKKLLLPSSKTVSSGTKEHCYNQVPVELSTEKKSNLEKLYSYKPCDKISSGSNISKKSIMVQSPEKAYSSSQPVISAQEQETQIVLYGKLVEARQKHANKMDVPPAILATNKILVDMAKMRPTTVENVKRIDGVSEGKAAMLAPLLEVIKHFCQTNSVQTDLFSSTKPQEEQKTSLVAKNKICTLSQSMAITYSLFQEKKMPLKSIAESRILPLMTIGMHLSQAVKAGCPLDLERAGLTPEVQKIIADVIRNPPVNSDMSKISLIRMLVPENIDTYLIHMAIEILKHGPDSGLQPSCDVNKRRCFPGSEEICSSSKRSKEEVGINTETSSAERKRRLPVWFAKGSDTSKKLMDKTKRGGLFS
experimental_details: ADP-Glo Kinase Assay
Hey, just a heads up that pIC50 is the negative log base 10 of the concentration in molar.

CCc1c(N2CCN(C(=O)c3ccccc3NS(=O)(=O)C3CC3)CC2)c(=O)n2nc(N3C[C@H]4COC[C@H]4C3)nc2n1CC(=O)Nc1ccc(C(F)(F)F)cc1Cl ... 7.58
Cc1ncnc(C(=O)N2CCN(c3c4n(c5nc(-c6ccc7c(c6)COC7(C)C)nn5c3=O)[C@H](C(=O)Nc3ccc(C(F)(F)F)cc3Cl)C[C@H]4C)CC2)c1O ... 7.59

Next, consider the following compound.
Input line: Look up and report measured pIC50 for this entry: CCc1c(N2CCN(C(=O)C(C)O)CC2)c(=O)n2nc(C3=CCOCC3)nc2n1CC(=O)Nc1ccc(C(F)(F)F)cc1Cl (stereo not drawn)
Output line: 6.74

====

The entries below come with measured pIC50 values attached.
assayed_target: Bifunctional 3'-5' exonuclease/ATP-dependent helicase WRN (Homo sapiens)
experimental_details: ADP-Glo Kinase Assay
Hey, just a heads up that pIC50 is the negative log base 10 of the concentration in molar.

CCc1c(N2CCN(C(=O)c3ncnc(C)c3O)CC2)c(=O)n2nc(-c3ccc4oc(=O)n(C)c4c3)nc2n1CC(=O)Nc1ccc(C(F)(F)F)cc1Cl ... 7.57
CCc1c(N2CCN(C(=O)c3ncnc(C)c3O)CC2)c(=O)n2nc(-c3ccc4c(c3)COC4)nc2n1CC(=O)Nc1ccc(C(F)(F)F)cc1Cl ... 7.56
CCc1c(N2CCN(C(=O)c3ncnc(C)c3O)CC2)c(=O)n2nc(N3CC(OC)C3)nc2n1CC(=O)Nc1ccc(C(F)(F)F)cc1Cl ... 7.06
Cc1ncnc(C(=O)N2CCN(c3c4n(c5nc(-c6ccc7c(c6)COC7(C)C)nn5c3=O)[C@@H](C(=O)Nc3ccc(C(F)(F)F)cc3Cl)C[C@@H]4C)CC2)c1O ... 5.43
CCc1c(N2CCN(C(=O)c3ncnc(C)c3O)CC2)c(=O)n2nc(-c3ccn4cncc4c3)nc2n1CC(=O)Nc1ccc(C(F)(F)F)cc1Cl ... 7.72

Input line: Look up and report measured pIC50 for this entry: `CCc1c(N2CCN(C(=O)c3ncnc(C)c3O)CC2)c(=O)n2nc(-c3cc(C)c4nn(C)cc4c3)nc2n1CC(=O)Nc1ccc(C(F)(F)F)cc1Cl`
Output line: 7.54

Input line: Look up and report measured pIC50 for this entry: `CCc1c(N2CCN(C(=O)c3ncnc(C)c3O)CC2)c(=O)n2nc(C3=CCOCC3)nc2n1CC(=O)NC1CCC(F)(F)CC1`
Output line: 5.40

====

assayed_target: Bifunctional 3'-5' exonuclease/ATP-dependent helicase WRN [480-1251] (UniProt Q14191)
Construct: 480-1251
Sequence (Q14191 480-1251): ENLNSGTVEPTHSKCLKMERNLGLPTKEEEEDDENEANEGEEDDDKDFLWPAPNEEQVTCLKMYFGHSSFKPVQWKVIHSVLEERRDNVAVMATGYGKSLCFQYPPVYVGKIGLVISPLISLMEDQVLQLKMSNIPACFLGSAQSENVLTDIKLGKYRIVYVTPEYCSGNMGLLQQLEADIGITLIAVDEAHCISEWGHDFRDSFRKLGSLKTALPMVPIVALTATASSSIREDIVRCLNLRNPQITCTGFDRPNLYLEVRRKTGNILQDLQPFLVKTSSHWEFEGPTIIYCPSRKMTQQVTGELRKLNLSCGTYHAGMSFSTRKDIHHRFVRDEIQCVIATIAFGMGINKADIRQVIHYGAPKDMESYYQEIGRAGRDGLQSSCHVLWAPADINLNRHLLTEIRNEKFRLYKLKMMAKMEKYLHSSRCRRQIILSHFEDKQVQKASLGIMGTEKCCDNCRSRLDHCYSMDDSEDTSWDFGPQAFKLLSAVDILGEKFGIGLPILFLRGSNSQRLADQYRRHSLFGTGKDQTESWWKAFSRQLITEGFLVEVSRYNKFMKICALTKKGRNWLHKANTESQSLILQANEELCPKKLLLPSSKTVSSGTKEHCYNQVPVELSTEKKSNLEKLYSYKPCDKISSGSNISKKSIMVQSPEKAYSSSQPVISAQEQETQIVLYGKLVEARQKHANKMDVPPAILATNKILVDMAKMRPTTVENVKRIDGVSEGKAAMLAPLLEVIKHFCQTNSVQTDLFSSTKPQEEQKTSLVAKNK
experimental_details: Biochemical Activity Assays
quantity_measured: IC50 (nM)
// units = nM; emit number, no label

CCc1c(N2CCN(C(=O)C(F)(F)CO)CC2)c(=O)n2nc(C3=CCOCC3)nc2n1CC(=O)Nc1ccc(C(F)(F)F)cc1Cl [WO2025049746, Example 56] ... 139

Input line: Look up and report measured IC50 for this entry: CCc1c(N2CCN(C(=O)C3=CCOCC3)CC2)c(=O)n2nc(-c3ncc(O)cn3)nc2n1CC(=O)Nc1ccc(C(F)(F)F)cc1Cl [WO2025049746, Example 436]
Output line: 50

Input line: Look up and report measured IC50 for this entry: CCc1c(N2CCN(C(=O)c3ncnc(C)c3O)CC2)c(=O)n2nc(-c3ccc4nc(NC)oc4c3)nc2n1CC(=O)Nc1ccc(C(F)(F)F)cc1Cl [WO2025049746, Example 307]
Output line: 32

Input line: Look up and report measured IC50 for this entry: Cc1ncnc(C(=O)N2CCN(c3c4n(c5nc(-c6ccc7c(c6)COC7(C)C)nn5c3=O)[C@@H](C(=O)Nc3ccc(C(F)(F)F)cc3Cl)C[C@H]4C)[C@H]3CC[C@@H]32)c1O [WO2025049746, Example 465]
Output line: 31.9

Input line: Look up and report measured IC50 for this entry: CCc1c(N2CCN(C(=O)c3ncnc(C)c3O)CC2)c(=O)n2nc(-c3ccc4c(c3)CCOC4)nc2n1CC(=O)Nc1ccc(SC(F)(F)F)cc1 [WO2025049746, Example 393]
Output line: 419
